Listed compounds paired with reported hERG current change (%, negative = inhibition) at 10uM
- studySystem: human ether-à-go-go-related gene (hERG) potassium channel (human, UniProt Q12809);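 further: peak tail current of the secondary pulse compared with the same well before compound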
- Sequence (Q12809 whole entry, looked up): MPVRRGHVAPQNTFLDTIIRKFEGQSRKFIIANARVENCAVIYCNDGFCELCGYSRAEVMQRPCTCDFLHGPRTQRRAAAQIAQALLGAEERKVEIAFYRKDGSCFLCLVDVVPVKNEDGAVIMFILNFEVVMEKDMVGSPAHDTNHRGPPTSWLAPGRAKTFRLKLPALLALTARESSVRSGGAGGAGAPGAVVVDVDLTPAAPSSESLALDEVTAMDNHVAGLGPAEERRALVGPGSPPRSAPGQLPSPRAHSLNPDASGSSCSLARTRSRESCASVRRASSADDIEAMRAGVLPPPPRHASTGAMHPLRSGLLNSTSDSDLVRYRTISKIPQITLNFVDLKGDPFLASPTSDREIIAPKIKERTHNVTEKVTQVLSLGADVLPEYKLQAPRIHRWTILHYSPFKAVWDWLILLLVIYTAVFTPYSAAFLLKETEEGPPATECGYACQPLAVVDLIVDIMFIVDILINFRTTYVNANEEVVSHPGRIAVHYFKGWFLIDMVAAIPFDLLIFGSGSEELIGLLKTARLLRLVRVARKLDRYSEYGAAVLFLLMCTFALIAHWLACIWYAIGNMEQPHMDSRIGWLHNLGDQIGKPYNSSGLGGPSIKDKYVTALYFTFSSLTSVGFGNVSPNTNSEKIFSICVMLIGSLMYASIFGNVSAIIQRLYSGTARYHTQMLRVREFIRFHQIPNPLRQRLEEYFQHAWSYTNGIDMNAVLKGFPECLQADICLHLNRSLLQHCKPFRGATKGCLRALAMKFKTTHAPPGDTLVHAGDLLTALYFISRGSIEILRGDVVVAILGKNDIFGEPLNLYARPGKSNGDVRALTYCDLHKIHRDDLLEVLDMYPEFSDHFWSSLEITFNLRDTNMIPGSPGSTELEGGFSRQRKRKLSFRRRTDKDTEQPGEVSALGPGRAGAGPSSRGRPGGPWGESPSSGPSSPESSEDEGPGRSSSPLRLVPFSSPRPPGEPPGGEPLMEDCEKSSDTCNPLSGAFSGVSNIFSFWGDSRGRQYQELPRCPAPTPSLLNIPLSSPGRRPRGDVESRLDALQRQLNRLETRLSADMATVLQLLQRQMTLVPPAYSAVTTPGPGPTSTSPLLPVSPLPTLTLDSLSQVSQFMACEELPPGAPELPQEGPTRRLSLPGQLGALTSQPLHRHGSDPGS
- procedureDetails: primary screen, population patch clamp on CHO cells stably expressing hERG; higher = less effect of the substance
About 14,000 (4.5%) of roughly 310,000 compounds showed an effect of 50% or more. Effects have a minus sign here. For the sample, strong results were picked, then their nearest neighbours and some compounds at random.
experimentalEndpoint: hERG current change (%, negative = inhibition) at 10uM (%)

>>> resultnumber("COc1cccc(CNC(=O)CCC(=O)n2ncc3cc(C)ccc32)c1OC")
3.67
>>> resultnumber("O=c1oc2c(-c3cccc(F)c3)cc(O)cc2s1")
8.45
>>> resultnumber("Cc1cccc2nc(CSc3nc4[nH]ncc4c(=O)n3-c3cccc(Cl)c3)cc(=O)n12")
-23.3
>>> resultnumber("COc1ccc(N2C(=O)C3CCCN3C2c2ccccc2)cc1Cl (stereo not shown)")
7.28
>>> resultnumber("COc1ccccc1NC(=O)CSCc1cc(=O)n2ccsc2n1")
13.3
>>> resultnumber("Cc1ccc(NCc2nnc(SCC(=O)N(Cc3ccccc3)C(C)(C)C)o2)c(C)c1")
-9.53
>>> resultnumber("Cc1nc(Nc2ccc(S(N)(=O)=O)cc2)sc1-c1ccccc1")
12.9
>>> resultnumber("Nc1nc(-c2ccccc2)c(-c2ccccc2)s1")
-2.18
>>> resultnumber("Nc1c(-c2ccccc2)sc2ccc3ccccc3[n+]12.O=S(=O)([O-])c1ccccc1")
-58.3
>>> resultnumber("O=C(COc1ccc(C(=O)NCCc2ccccc2)cc1)Nc1ccccc1")
7.64
